These measurements were taken from PubChem BioAssay (NCATS).

Experiment Summary: BET inhibitor-based combinations targeting novel dependencies in MECOM-rearranged (r) AML: UCSD-AML1 cell line (AID 2202235); further: nearly all actives have a fitted effect of over 40% in size
Measurement Context: UCSD-AML1 AML cells viability, CellTiter-Glo, 48 h; series mostly up to 46 µM
Records with an inconclusive call do not appear. The source made the active and inactive calls. The call rests on the fitted dose curve; in most records, active means well fitted inhibition curve with a large enough effect; inconclusive means small, poorly fitted or top-dose-only effect; inactive means no such curve, though single readings can be large or run the other way.
Pick from active, inactive when you respond.

Worked cases, answers included:
>>> category("Cc1c(N)nc([C@H](CC(N)=O)NC[C@@H](N)C(N)=O)nc1C(=O)N[C@H](C(=O)N[C@@H](C)[C@H](O)[C@@H](C)C(=O)N[C@@H](C(=O)NCCc1nc(-c2nc(C(=O)NCCC[S+](C)C)cs2)cs1)[C@@H](C)O)C(O[C@H]1O[C@H](CO)[C@H](O)[C@@H](O)[C@H]1O[C@H]1O[C@H](CO)[C@@H](O)[C@H](OC(N)=O)[C@@H]1O)c1cnc[nH]1 (stereo partly specified)")
"inactive"
>>> category("CCOC(=O)c1c(C(C#N)=CN)c2ccc(Cl)c(Cl)c2n1C")
"inactive"
>>> category("C[C@@H]1CN(Cc2ccc(F)cc2)CCN1C(=O)COc1ccc(Cl)cc1NC(N)=O")
"inactive"

Query: recorded result category for COc1cc2cc(c1Cl)N(C)C(=O)C[C@H](OC(=O)C(C)C)[C@]1(C)O[C@@H]1[C@H](C)[C@@H]1C[C@@](O)(NC(=O)O1)[C@H](OC)/C=C/C=C(\C)C2 in this test inactive

Query: recorded result category for C#C[C@]1(O)C=C[C@H]2[C@@H]3CCC4=CC(=O)CC[C@@H]4[C@H]3CC[C@@]21CC in this test inactive

Query: recorded result category for CC(=O)c1c(O)c(C)c(O)c(Cc2c(O)c3c(c(C(=O)/C=C/c4ccccc4)c2O)OC(C)(C)C=C3)c1O in this test active

---

Experiment Summary: BET inhibitor-based combinations targeting novel dependencies in MECOM-rearranged (r) AML: UCSD-AML1 cell line (AID 2202235); further: nearly all actives have a fitted effect of over 40% in size
Measurement Context: UCSD-AML1 AML cells viability, CellTiter-Glo, 48 h; series mostly up to 46 µM
Inconclusive results are not listed. Calls of active or inactive are those of the source. The call rests on the fitted dose curve; in most records, active means well fitted inhibition curve with a large enough effect; inconclusive means small, poorly fitted or top-dose-only effect; inactive means no such curve, though single readings can be large or run the other way.
Pick from 1 for active, 0 for inactive when you respond.

Worked cases, answers included:
>>> category("O=C(NCC1CCOCC1)c1cnc(Nc2ccc(Cl)cc2Cl)nc1C(F)(F)F")
0
>>> category("C=C(C)[C@H]1Cc2c(ccc3c2O[C@@H]2COc4cc(OC)c(OC)cc4[C@@H]2C3=O)O1")
1
>>> category("Cc1ncc(OC[C@@]2(c3cccc(F)c3)C[C@H]2C(=O)Nc2ccc(F)cn2)c(C)n1")
0
>>> category("C[C@@H]1O[C@@H](O[C@H]2C[C@@H](O)[C@]3(CO)[C@H]4[C@H](O)C[C@]5(C)[C@@H](C6=CC(=O)OC6)CC[C@]5(O)[C@@H]4CC[C@]3(O)C2)[C@H](O)[C@H](O)[C@H]1O")
1
>>> category("C=C1C[C@@H]2[C@H](CC[C@]3(C)C(=O)CC[C@@H]23)[C@@]2(C)C=CC(=O)C=C12")
0
>>> category("COC[C@@H](NC(C)=O)C(=O)NCc1ccccc1")
0

Query: recorded result category for C/C(=C\c1csc(C)n1)[C@@H]1C[C@@H]2O[C@]2(C)CCC[C@H](C)[C@H](O)[C@@H](C)C(=O)C(C)(C)[C@@H](O)CC(=O)O1 in this test 1

Query: recorded result category for CC(C)CC(N(C)C)C1(c2ccc(Cl)cc2)CCC1 (stereo not drawn) in this test 0
